Where do these numbers come from? They come from PubChem BioAssay AID248.

Test system: L1210 leukemia ip in BDF1 mice, survival T/C
Test: NCI In Vivo Anticancer Drug Screen. Data for tumor model L1210 Leukemia (intraperitoneal) in B6D2F1 (BDF1) mice
Conditions: endpoint: mean survival time; dose: 20.0 mg/kg/injection; schedule: Q01DX001 (ip); vehicle: saline; higher = longer survival
Experimental: The antitumor activity of compounds was measured in mice bearing transplantable tumors. Survival or tumor size were measured and the results are expressed as the measurement made in the treated group (T) divided by the measurement made in the vehicle treated control group (C). The tumor model used in this assay is L1210 Leukemia (intraperitoneal) in B6D2F1 (BDF1) mice
Toxic doses and inconclusive results are not listed.
Parameter: T/C. Scope: all listed entries.

Illustrative cases are given below, each with its answer.
- compound: "COc1ccc(C[As+](Cc2ccccc2)(Cc2ccc(OC)cc2)Cc2ccc(OC)cc2)cc1"
  measurement type: "T/C"
  val: "96 % of control"
- compound: "COc1cc2c(c(OC)c1OC)CCNC2"
  measurement type: "T/C"
  val: "100 % of control"

Q) For the compound shown here, CCC(=O)C(c1ccccc1)(c1ccccc1)C(C)CN(C)C (configuration not stated) , give the reported T/C.
A) 96 % of control

Q) For the compound shown here, `O=C(C[n+]1ccccc1-c1ccccn1)c1ccccc1` , give the reported T/C.
A) 105 % of control

Q) For the compound shown here, `Nc1ccc(N)cc1` , give the reported T/C.
A) 106 % of control

Q) For the compound shown here, `[N-]=[N+]=C1C(c2ccccc2)=NC(c2nccc3ccccc23)=C1[N+](=O)[O-]` , give the reported T/C.
A) 110 % of control

Q) For the compound shown here, `O=C(O)CN(CC(=O)O)Cc1ccccc1` , give the reported T/C.
A) 100 % of control

* * *

System: L1210 leukemia ip in BDF1 mice, survival T/C
Assay: NCI In Vivo Anticancer Drug Screen. Data for tumor model L1210 Leukemia (intraperitoneal) in B6D2F1 (BDF1) mice
Conditions: endpoint: mean survival time; dose: 50.0 mg/kg/injection; schedule: Q01DX009 (ip); vehicle: Klucel (hydroxypropylcellulose) (HPC); higher = longer survival
Inconclusive results and toxic doses are left out.
measurement type: T/C

Illustrative cases are given below, each with its answer.
- compound: "O=c1cc(CO)[nH]c(=O)[nH]1"
  tested system: "L1210 leukemia ip in BDF1 mice, survival T/C"
  val: "94 % of control"
- compound: "O=C(COc1cccc(Cl)c1)Nc1cccnc1"
  tested system: "L1210 leukemia ip in BDF1 mice, survival T/C"
  val: "92 % of control"
- compound: "CC(C)=CCN(CC=C(C)C)CCC(C#N)c1cccc2ccccc12 (configuration not stated)"
  tested system: "L1210 leukemia ip in BDF1 mice, survival T/C"
  val: "100 % of control"

Q) Fill in the recorded T/C for this compound, with L1210 leukemia ip in BDF1 mice, survival T/C as test system: `COc1cc(C(=O)CC(O)(C(F)(F)F)C(F)(F)F)cc(OC)c1OC`
A) 95 % of control

Q) Fill in the recorded T/C for this compound, with L1210 leukemia ip in BDF1 mice, survival T/C as test system: `O=C(CI)Nc1ccc(Cl)c(Cl)c1`
A) 94 % of control

Q) Fill in the recorded T/C for this compound, with L1210 leukemia ip in BDF1 mice, survival T/C as test system: CC1(C)OC2C(CO)OC(n3cnc4c(N)ncnc43)C2O1 (configuration not stated)
A) 98 % of control

Q) Fill in the recorded T/C for this compound, with L1210 leukemia ip in BDF1 mice, survival T/C as test system: `Cc1cc(=O)oc2cc(OC(=O)Nc3cccc(Cl)c3Cl)ccc12`
A) 93 % of control
